System: differentiated 3T3-L1 adipocytes
Assay remarks: Isoproterenol-stimulated lipolysis in differentiated 3T3-L1 adipocytes
Assay type: cell-based
Study conditions: Mus musculus, 2 h pretreatment, 1 μM isoproterenol, glycerol release, read-out: IC50 3T3 glycerol release
Provide the reported pIC50 of each item.
Scale explanation: pIC50 corresponds to minus log10 of a concentration expressed in moles per litre.

Qu. What does the record list as pIC50 for CCOc1ccc(-c2cccc(C(=O)OCc3ccco3)n2)cc1 ?
Ans. 4.60

Qu. C#C[C@@H](C)OC(=O)c1csc(-c2ccc(OCC)cc2)n1 ?
Ans. 4.70

Qu. CCOc1ccc(-c2nc(C(=O)OCc3ccsc3)cs2)cc1 ?
Ans. 4.82

Qu. CCOc1ccc(-c2nc(C(=O)OCc3ccoc3)cs2)cc1 ?
Ans. 4.60

* * *

Provide the reported IC50 of each item.
Test target: human ATGL (Homo sapiens, UniProt Q96AD5)
Construct: made in house; host or cells: Expi cells (lysate, not purified)
Sequence (Q96AD5 1-504): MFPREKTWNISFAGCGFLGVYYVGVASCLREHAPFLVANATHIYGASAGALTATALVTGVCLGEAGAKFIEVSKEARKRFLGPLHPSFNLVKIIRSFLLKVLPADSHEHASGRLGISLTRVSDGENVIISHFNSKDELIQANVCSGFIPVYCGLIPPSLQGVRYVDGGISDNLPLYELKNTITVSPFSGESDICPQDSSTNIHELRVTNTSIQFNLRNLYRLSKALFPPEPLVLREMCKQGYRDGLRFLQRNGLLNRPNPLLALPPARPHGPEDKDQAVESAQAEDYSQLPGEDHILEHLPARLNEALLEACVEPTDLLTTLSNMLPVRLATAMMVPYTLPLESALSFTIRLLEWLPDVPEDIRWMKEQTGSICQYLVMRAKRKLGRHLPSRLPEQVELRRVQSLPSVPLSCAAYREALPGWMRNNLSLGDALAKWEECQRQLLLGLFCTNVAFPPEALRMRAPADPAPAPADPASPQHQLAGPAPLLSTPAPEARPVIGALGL
Assay remarks: TG hydrolase activity, Expi cell lysates expressing human ATGL + CGI-58, radiolabelled triolein
Format: biochemical
Study conditions: Example 237; read-out: Inhibition of human ATGL − IC50
I only need the number, in µM, no unit after it.

Qu. What does the record list as IC50 for CC(C)OC(=O)c1cccc(-c2ccccc2)n1 [Example 24] ?
Ans. 25

Qu. CC(C)OC(=O)c1cccc(-c2ccc(C#Cc3ccccc3)cc2)n1 [Example 63] ?
Ans. 6

Qu. COCc1ccc(-c2cc(OC)cc(C(=O)OC(C)C)n2)cc1 [Example 61] ?
Ans. 1

Qu. C#CC(C)OC(=O)c1csc(-c2ccc(OCC)cc2)n1 (centres unmarked) [Example 157] ?
Ans. 0.9

Qu. CCOC(=O)c1nc(-c2ccc(OCC)cc2)sc1Cl [Example 125] ?
Ans. 25

* * *

Provide the reported melting point of each item.

Qu. What does the record list as melting point for CCOc1ccc(-c2cccc(C(=O)OC/C=C/c3ccccc3)n2)cc1 ?
Ans. 110 °C

Qu. CC(C)OC(=O)c1cccc(-c2ccc(Cl)cc2)n1 ?
Ans. 94 to 95 °C

Qu. CCOc1ccc(-c2cccc(C(=O)OC(C)CC)n2)cc1 (centres unmarked) ?
Ans. 49 to 51 °C

Qu. CCCc1ccc(-c2cccc(C(=O)OC(C)C)n2)cc1 ?
Ans. 104 to 107 °C

Qu. CCCCOC(=O)c1cccc(-c2ccc(OCC)cc2)n1 ?
Ans. 78 to 81 °C

Qu. CCOc1ccc(-c2cccc(C(=O)OCc3ccsc3)n2)cc1 ?
Ans. 90 to 93 °C

Qu. COCCOc1ccc(-c2cccc(C(=O)OC(C)C)n2)cc1 ?
Ans. 75 to 77 °C

Qu. CC(C)OC(=O)c1cccc(/C=C/c2ccccc2)n1 ?
Ans. 66 to 71 °C

Qu. CCOc1ccc(-c2cccc(C(C)=O)n2)cc1 ?
Ans. 80 to 86 °C

Qu. CCOc1ccc(-c2ccc(OC)c(C(=O)OC)n2)cc1 ?
Ans. 114 to 116 °C

Qu. CCSc1ccc(-c2cccc(C(=O)OC(C)C)n2)cc1 ?
Ans. 93 to 96 °C

Qu. CC(C)OC(=O)c1cccc(-c2ccc(-c3nc4ccccc4n3-c3ccccc3)cc2)n1 ?
Ans. 172 to 176 °C

Qu. CCOc1ccc(-c2cccc(C(=O)OCCc3cccs3)n2)cc1 ?
Ans. 73 to 78 °C

Qu. [2H]C([2H])([2H])C([2H])(OC(=O)c1cc(OC)cc(-c2ccc(OC(C)C)cc2)n1)C([2H])([2H])[2H] ?
Ans. 70 to 72 °C

Qu. CCOc1ccc(-c2cccc(C(=O)OCc3ccco3)n2)cc1 ?
Ans. 76 to 80 °C

Qu. CC(C)COc1ccc(-c2cccc(C(=O)OC(C)C)n2)cc1 ?
Ans. 103 to 107 °C

Qu. C=CCOC(=O)c1cccc(-c2ccc(C(F)(F)F)cc2)n1 ?
Ans. 79 to 80 °C

Qu. CCc1ccc(-c2cccc(C(=O)OC(C)C)n2)cc1 ?
Ans. 82 to 84 °C

Qu. CC(C)OC(=O)c1cccc(-c2ccc(O)cc2)n1 ?
Ans. 154 to 157 °C

Qu. CCCOc1ccc(-c2cc(OC)cc(C(=O)OC(C)C)n2)cc1 ?
Ans. 79 to 81 °C
